Data provenance: patent US20020055470A1

- Test system: A2780S
- Measurement protocol: Inhibition of cell growth (cells counted on Coulter Counter after six days)
- Type: cell-based, human
- Experimental conditions: A2780S; (1h) exposure; read-out: EC50
Measure: EC50 (µM)

> print(dat)
                                  molecule  measure  result.value
1  N.N.[Cl][Pt][Cl] [Cisplatin, cisplatin]     EC50             7

* * *

- Tested on: HCF7S
- Measurement protocol: Inhibition of cell growth, Table VI
- Assay type: cell-based, human
- Experimental conditions: (C) continuous exposure
Measure: EC50 (µM)

> print(dat)
                                   molecule  modifier  result.value
1  Nc1nc2c(ncn2[C@H]2CC[C@@H](CO)O2)c(=O)[nH]1         =           210
2  NC(=O)c1ncn([C@@H]2O[C@H](CO)[C@@H](O)[C@H]2O)n1         =           100
3                NC(=O)NO [NU, hydroxyurea]         =           100
4   Nc1ncnc2c1ncn2[C@@H]1O[C@H](CO)C[C@H]1O         =           130
5        Nc1ncnc2c1ncn2[C@H]1CC[C@@H](CO)O1         =            30
6  Cc1cn([C@H]2C[C@H](N=[N+]=[N-])[C@@H](CO)O2)c(=O)[nH]c1=O         =            65
7  Cc1cn([C@H]2CC[C@@H](CO)O2)c(=O)[nH]c1=O         >           500
